FYI, the data here is from ChEMBL document CHEMBL4130363.

Molecular target: UniProtKB P46098
Sequence (whole entry): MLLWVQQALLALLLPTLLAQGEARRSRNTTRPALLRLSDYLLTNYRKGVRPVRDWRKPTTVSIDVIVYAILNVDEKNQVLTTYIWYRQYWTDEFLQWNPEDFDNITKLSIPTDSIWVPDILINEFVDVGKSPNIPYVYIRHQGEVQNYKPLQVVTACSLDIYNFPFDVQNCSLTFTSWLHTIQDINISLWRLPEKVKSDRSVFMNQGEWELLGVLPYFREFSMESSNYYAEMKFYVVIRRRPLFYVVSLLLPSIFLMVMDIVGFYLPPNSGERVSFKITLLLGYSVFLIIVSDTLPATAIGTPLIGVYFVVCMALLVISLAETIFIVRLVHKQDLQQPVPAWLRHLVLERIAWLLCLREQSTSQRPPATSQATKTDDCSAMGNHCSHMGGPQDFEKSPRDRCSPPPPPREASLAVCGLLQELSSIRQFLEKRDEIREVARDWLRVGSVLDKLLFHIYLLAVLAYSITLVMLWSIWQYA
Assay: Agonist activity at recombinant human 5-HT3 at 10 uM by aequorin reporter based assay relative to agonist
Measure name: Activity (%)
Express your answer in %, writing the number without its unit.

The compound listed as CN(CCCNC(=O)c1ccc([N+](=O)[O-])cc1)Cc1ccccc1 shows Activity equal to 0

The compound listed as CN(CCCNC(=O)c1ccc(Br)cc1)Cc1ccccc1 shows Activity equal to 1

The compound listed as CN(CCCNC(=O)c1ccc(Cl)cc1)CCc1ccccc1 shows Activity equal to -1

The compound listed as CN(CCNC(=O)c1ccc(Cl)cc1)Cc1ccccc1 shows Activity equal to 0

The compound listed as COc1cccc(C(=O)NCCCN(C)Cc2ccccc2)c1 shows Activity equal to 0

The compound listed as CN(CCCNC(=O)c1ccc(C(F)(F)F)cc1)Cc1ccccc1 shows Activity equal to -1

The compound listed as COc1ccc(C(=O)NCCCN(C)Cc2ccccc2)cc1 shows Activity equal to 0

The compound listed as CN(CCNC(=O)c1ccc([N+](=O)[O-])cc1)Cc1ccccc1 shows Activity equal to 0

The compound listed as CN(CCCNC(=O)c1cccc(Br)c1)Cc1ccccc1 shows Activity equal to 0

The compound listed as CN(CCCNC(=O)c1ccc(Cl)cc1)Cc1ccccc1 shows Activity equal to 2

The compound listed as CN(CCNC(=O)c1ccc(C#N)cc1)Cc1ccccc1 shows Activity equal to 0

The compound listed as CCCc1ccc(C(=O)NCCCN(C)Cc2ccccc2)cc1 shows Activity equal to -1
